For each record, write down the corresponding pKd.
Biological target: RAR β (Homo sapiens, UniProt P10826)
Sequence (P10826 1-455): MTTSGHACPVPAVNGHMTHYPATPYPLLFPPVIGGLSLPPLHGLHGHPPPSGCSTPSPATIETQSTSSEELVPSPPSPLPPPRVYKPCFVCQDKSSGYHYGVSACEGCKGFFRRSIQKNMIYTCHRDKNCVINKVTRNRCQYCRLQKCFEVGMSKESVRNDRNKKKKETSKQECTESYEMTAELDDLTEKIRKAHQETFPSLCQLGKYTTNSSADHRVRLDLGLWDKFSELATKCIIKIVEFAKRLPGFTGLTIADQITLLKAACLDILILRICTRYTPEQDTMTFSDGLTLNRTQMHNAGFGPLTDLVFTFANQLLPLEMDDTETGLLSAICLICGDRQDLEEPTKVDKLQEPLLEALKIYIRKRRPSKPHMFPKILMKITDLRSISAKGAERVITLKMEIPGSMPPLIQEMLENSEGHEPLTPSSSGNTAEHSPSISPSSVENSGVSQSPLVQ
Test: RAR β Kd
Type: binding
Settings: last item of cell EC50/(EFFICACY)/Kd
Note: pKd values are expressed as the negative base-10 logarithm of concentration in M.

If you can, please state the reported pKd value of CCOC(=O)c1cc(C#Cc2ccc(CC(=O)O)cc2)cc2c1C(N(C)C1CC1)CCC2(C)C (stereo not shown) .
5.14

Consider next the molecule CC(C(=O)O)c1ccc(C#Cc2cc(C3CC3)c3c(c2)C(C)(C)CC2(CC2)O3)cc1 (stereo not shown) in the same way.
5.52

Consider next the molecule CC1(C)CC2(CC2)Oc2c(C3CC3)cc(NC(=O)Nc3ccc(C(=O)O)cc3)cc21 in the same way.
5.34

Consider next the molecule CC(C(=O)O)c1ccc(C#Cc2cc(CN(C)C3CC3)c3c(c2)C(C)(C)CC(C)(C)O3)cc1 (stereo not shown) in the same way.
5.32

Consider next the molecule CCOC(=O)C1=C(C)CC(C)(C)c2cc(C#Cc3ccc(CC(=O)O)c(F)c3)ccc21 in the same way.
5.54

Consider next the molecule CCOC(=O)C1=CCC(C)(C)c2cc(C#Cc3ccc(CC(=O)O)c(F)c3)ccc21 in the same way.
5.40

Consider next the molecule CCC1(CC)CC(C)(C)c2cc(C#Cc3ccc(C(C)(C)C(=O)O)cc3)cc(C(C)C)c2O1 in the same way.
5.13

* * *

Target: CYP26B (P450RAI-2) (Homo sapiens)
Construct: expressed in transfected cells; host or cells: HeLa
Sequence (Q9NR63 whole entry): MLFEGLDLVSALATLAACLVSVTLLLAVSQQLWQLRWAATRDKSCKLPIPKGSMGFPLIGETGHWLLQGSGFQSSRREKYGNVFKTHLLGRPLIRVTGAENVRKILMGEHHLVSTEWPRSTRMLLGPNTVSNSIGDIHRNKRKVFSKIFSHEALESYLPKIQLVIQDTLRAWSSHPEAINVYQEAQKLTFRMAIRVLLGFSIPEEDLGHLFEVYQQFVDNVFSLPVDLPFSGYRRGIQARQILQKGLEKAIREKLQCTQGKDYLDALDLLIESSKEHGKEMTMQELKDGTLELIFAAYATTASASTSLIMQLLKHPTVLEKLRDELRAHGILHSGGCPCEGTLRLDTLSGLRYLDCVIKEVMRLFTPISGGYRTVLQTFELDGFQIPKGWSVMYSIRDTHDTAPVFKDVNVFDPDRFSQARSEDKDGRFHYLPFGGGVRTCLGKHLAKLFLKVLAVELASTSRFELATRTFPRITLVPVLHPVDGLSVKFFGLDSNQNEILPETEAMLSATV
Test: Cell-based inhibition of RA metabolism in CYP26B stably transfected HeLa cells
Conditions: stably transfected HeLa cells, [3H]-RA, 3 hours at 37° C.; read-out: P450RAI-2 Whole cell IC50
parameter: IC50

If you can, please state the reported IC50 value of CCOC(=O)C1=C(C)CC(C)(C)c2cc(C#Cc3ccc(CC(=O)O)cc3)ccc21 .
> 10 µM

Consider next the compound C/C(=C\c1ccc(C#Cc2cc(C3CC3)c3c(c2)C(C)(C)CC2(CC2)O3)cc1)C(=O)O in the same way.
> 10 µM

Consider next the compound CC(C(=O)O)c1ccc(C#Cc2cc(CN(C)C3CC3)c3c(c2)C(C)(C)CC(C)(C)O3)cc1 (stereo not shown) in the same way.
> 10 µM

Consider next the compound CN(c1cccc(C#Cc2ccc(/C=C/C(=O)O)cc2)c1)C1CC1 in the same way.
0.5 µM

Consider next the compound CC(C)c1cc(C(=O)Oc2ccc(/C=C/C(=O)O)cc2)cc2c1OC(C)(C)CC2(C)C in the same way.
> 10 µM

Consider next the compound C#Cc1c(C)c(C#Cc2ccc(CC(=O)O)cc2)cc(C(C)(C)C)c1OC(C)C in the same way.
> 10 µM

Consider next the compound COc1cc(C#Cc2ccc(C(C)C(=O)O)cc2)cc2c1C(N(C)C1CC1)CCC2(C)C (stereo not shown) in the same way.
> 10 µM

Consider next the compound CC1(C)CC(C)(C)c2cc(C#Cc3ccc(C(C)(C)C(=O)O)cc3)cc(O)c2O1 in the same way.
> 10 µM

Consider next the compound CC1(C)CC2(CC2)Oc2c(C3CC3)cc(C#Cc3ccc(/C=C(\Cl)C(=O)O)cc3)cc21 in the same way.
> 10 µM

Consider next the compound CN(Cc1cc(C#Cc2ccc(CC(=O)O)c(F)c2)cc2c1OC(C)(C)CC2(C)C)C1CC1 in the same way.
2 µM

Consider next the compound C=Cc1cc(C#Cc2ccc(CC(=O)O)cc2)cc2c1C(=O)CCC2(C)C in the same way.
0.2 µM

Consider next the compound CC(C)OC(=O)c1ccc(C#Cc2ccc(C(C)C(=O)O)cc2)cc1CN(C)C1CC1 (stereo not shown) in the same way.
> 10 µM

Consider next the compound CN(C1CC1)C1CCC(C)(C)c2cc(C#Cc3ccc(C(C)(C)C(=O)O)cc3)ccc21 (stereo not shown) in the same way.
> 10 µM

Consider next the compound CC(C)c1cc(C#Cc2cccc(/C=C/C(=O)O)c2)cc2c1OC(C)(C)CC2(C)C in the same way.
> 10 µM

Consider next the compound CN(C1CC1)C1CCC(C)(C)c2cc(C#Cc3ccc(C(C)(C)C(=O)O)cc3)cc(C3CC3)c21 (stereo not shown) in the same way.
> 10 µM

Consider next the compound CN(C1CC1)C1CCC(C)(C)c2cc(NC(=O)Nc3ccc(C(=O)O)cc3)ccc21 (stereo not shown) in the same way.
0.7 µM
